molecular target: recombinant human NK3 receptor (Homo sapiens); test: [3H]SR142801 competition binding assay; details: [3H]SR142801, membranes from HEK293 cells transiently expressing recombinant human NK3 receptor; read-out: hNK3 Ki
Sequence (P29371 whole entry): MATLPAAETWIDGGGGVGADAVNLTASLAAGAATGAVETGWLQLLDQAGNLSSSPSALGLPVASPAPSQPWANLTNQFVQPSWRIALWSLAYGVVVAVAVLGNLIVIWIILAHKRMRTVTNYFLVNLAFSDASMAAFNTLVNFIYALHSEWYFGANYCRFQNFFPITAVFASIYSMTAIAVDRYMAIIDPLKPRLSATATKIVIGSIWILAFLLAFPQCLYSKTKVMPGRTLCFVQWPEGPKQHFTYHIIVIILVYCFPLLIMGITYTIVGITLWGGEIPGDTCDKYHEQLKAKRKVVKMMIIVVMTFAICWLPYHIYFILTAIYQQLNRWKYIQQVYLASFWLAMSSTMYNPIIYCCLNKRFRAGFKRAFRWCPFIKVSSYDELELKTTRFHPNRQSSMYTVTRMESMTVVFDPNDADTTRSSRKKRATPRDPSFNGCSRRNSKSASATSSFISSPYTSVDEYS
Answer each item with its documented Ki.
One number for each entry, in nM.

In the examples that follow, each entry is paired with its recorded Ki.
C[C@H]1CN(CC[C@](C)(C(=O)NCc2ccc(Cl)c(Cl)c2)c2ccc(Cl)c(Cl)c2)CCN1S(C)(=O)=O (single isomer, unassigned) ... 19.2
CN(Cc1ccc(C(F)(F)F)c(F)c1)C(=O)C(C)(CCN1CCCN(S(C)(=O)=O)CC1)c1ccc(Cl)c(Cl)c1 (stereo not drawn) ... 16.2

// recorded Ki for CN(Cc1ccc(-c2ccncc2)cc1)C(=O)C(C)(CCN1CCCN(S(C)(=O)=O)CC1)c1ccc(Cl)c(Cl)c1 (stereo not drawn) : 93.4

* * *

molecular target: recombinant human NK3 receptor (Homo sapiens); assay: [3H]SR142801 competition binding assay; settings: [3H]SR142801, membranes from HEK293 cells transiently expressing recombinant human NK3 receptor; read-out: hNK3 Ki
pKi: −log10 of the molar value.
Please enter true where pKi is greater than or equal to 7, and false where it is lower.

Record excerpt, results attached:
CN(Cc1ccc(Cl)cc1)C(=O)C(C)(CCN1CCCN(S(C)(=O)=O)CC1)c1ccc(Cl)c(Cl)c1 (centres unmarked) ... true
C[C@@H]1CN(CCC(C)(C(=O)NCc2ccc(C(F)(F)F)cc2)c2ccc(Cl)c(Cl)c2)CCN1S(C)(=O)=O (some centres unmarked) ... true
CN(Cc1ccccc1)C(=O)C(CCN1CCN(S(C)(=O)=O)CC1)c1ccc(Cl)c(Cl)c1 (centres unmarked) ... false
CC(NC(=O)C(C)(CCN1CCN(S(C)(=O)=O)CC1)c1ccc(Cl)c(Cl)c1)c1ccc(Cl)cc1 (centres unmarked) ... false
C[C@H]1CN(CCC(C)(C(=O)NCc2cc(C(F)(F)F)ccc2F)c2ccc(Cl)c(Cl)c2)CCN1S(C)(=O)=O (some centres unmarked) ... false
C[C@@H]1CN(CCC(C)(C(=O)NCc2ccc3nccnc3c2)c2ccc(Cl)c(Cl)c2)CCN1S(C)(=O)=O (some centres unmarked) ... false

Could you tell me if the measured pKi of C[C@H]1CN(CCC(C)(C(=O)NCc2ccc(N(C)C)cc2)c2ccc(Cl)c(Cl)c2)CCN1S(C)(=O)=O (some centres unmarked) reaches 7 or more?
false

Could you tell me if the measured pKi of CN(Cc1ccc(C(F)(F)F)cc1)C(=O)C(C)(CCN1CCCN(S(C)(=O)=O)CC1)c1ccc(Cl)c(Cl)c1 (centres unmarked) reaches 7 or more?
true

Could you tell me if the measured pKi of COc1ccc(C(NC(=O)C(C)(CCN2CCN(S(C)(=O)=O)[C@H](C)C2)c2ccc(Cl)c(Cl)c2)C2CC2)cc1 (some centres unmarked) reaches 7 or more?
true

* * *

Answer each item with its documented Ki.
target: recombinant human NK3 receptor (Homo sapiens); experiment: [3H]SR142801 competition binding assay; settings: [3H]SR142801, membranes from HEK293 cells transiently expressing recombinant human NK3 receptor; read-out: hNK3 Ki
Hi, when you answer, please include the unit after the number. Thanks!

In the examples that follow, each entry is paired with its recorded Ki.
CC(CCN1CCCN(S(C)(=O)=O)CC1)(C(=O)NCc1cccc(OC(F)(F)F)c1)c1ccc(Cl)c(Cl)c1 (centres unmarked) ... 123 nM
Cc1ccc(CN(C)C(=O)C(C)(CCN2CCN(S(C)(=O)=O)CC2)c2ccc(Cl)c(Cl)c2)cc1 (centres unmarked) ... 77.4 nM
C[C@H]1CN(CC[C@@](C)(C(=O)NCc2ccc(Cl)c(Cl)c2)c2ccc(Cl)c(Cl)c2)CCN1S(C)(=O)=O (single isomer, unassigned) ... 112 nM

Look at each compound and report its Ki.
1. C[C@H]1CN(CCC(C)(C(=O)NCc2cccc(OC(F)(F)F)c2)c2ccc(Cl)c(Cl)c2)CCN1S(C)(=O)=O (some centres unmarked)
2. C[C@@H]1CN(CCC(C)(C(=O)N(C)Cc2ccccc2Cl)c2ccc(Cl)c(Cl)c2)CCN1S(C)(=O)=O (some centres unmarked)

126 nM
88 nM
